# assayedTarget: GABARAPL2, P60520
# Sequence (P60520 whole entry, the tested form may be a part): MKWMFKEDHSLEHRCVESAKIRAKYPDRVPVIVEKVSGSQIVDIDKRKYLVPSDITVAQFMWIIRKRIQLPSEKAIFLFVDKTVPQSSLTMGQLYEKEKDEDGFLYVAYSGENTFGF
# assayMethodText: median log2 fold change of GCK-ALFA target abundance (FLAG IP / Myc IP barcode read proportion) (log2 ratio); each designed protein is fused to an ALFA-tag nanobody in HEK293 cells to bring the named protein to FLAG-tagged glucokinase (GCK); Myc marks an untargeted standard; higher = target protein stabilised (more abundant)
# details: target protein: 3xFLAG-MCP-GCK-ALFA reporter; HEK293 landing pad (RPLP)
If the reported median log2 fold change equals or exceeds -0.02, assign class 1. If not, assign class 0.

{"columns": ["binder", "answerLabel"],
 "data": [
  ["GBRAPL2_54_7368 (protein) MIEVEITVVMKRENFLKHKELIKKILLEKVEELKKEHPDLIEKILEIEEEEYPDVGLLSIKILAKPEAEDLIRDLAEEIQKELEKKTGEKVHVVVAFGEL", "class 0"],
  ["GBRAPL2_0_7255 (protein) LEEVLKKMKESSIEEAVELAKEEADRLVADPSVTPEEFEEAAVALLEVLAEKAKEEKTEEALELLEEAVDYLTELAKKVDPDVAAFIDTYGGSLLYELEE", "class 0"],
  ["GBRAPL2_0_7220 (protein) MEEFVKEMLELSIKEAAEAAVKYIKELVESGKYSLEEIEEAVEKIAEVLGEKLKKEKKEEAEDIAMEAADEIRKILSEKDPNLAAYAYSEIGAEIMEAWS", "class 1"],
  ["GBRAPL2_0_7197 (protein) YLKEIEEMKKLSPEEAFEKAKELVKKLAEDKTISPEELEKILEAILELAAEIVKKTKEEKMEEKFDELADLAVKAAAKKDPNLAAYIASYAGSLRYEVES", "class 1"],
  ["GBRAPL2_0_7193 (protein) IEERIEKMKELSIEEAVKEGIEIVEEVMKDPSFTDEEKVEIAERVVDIVAEKAKEEKTEEALDLAVEFARKVREILEKISPEDAAYVETRMGAELMEIES", "class 1"],
  ["GBRAPL2_0_7259 (protein) LEEVLEEMKELSIEEAAELAKKYVKELVADPSVTPEQFLEAAEALLEVLAEKVKEEKTEEALEIFDEAVDYFTEEAKKIDPETAAAVATYGGSLLYEIES", "class 1"],
  ["GBRAPL2_128_7296 (protein) MKIVEIDIDVENEEEAELVLEILEEISKKSSPEVKKLMDAAKDMVESLKEDGYDEKATVVDILSEEDAKELEELYKEEAKKYGEEKVKKIIKLEIDEIPP", "class 0"],
  ["GBRAPL2_54_7370 (protein) ETIIEIEATFIAEGSEEELEEVEKVALEKLAELSEKLKKEFGAESEISSERENGVLSVTVKITTKKEDLDKVLDLLEETRDEISKETGKKVSLVIGIKEL", "class 0"],
  ["GBRAPL2_128_7273 (protein) MYLVEIDIDVKDEESYNLAVEILDEIAKNSSEKVKDLAEAARDMAEIAYENGFDEKVVVVDIVSEEEAEELKKIYEEIKKKKGEEKVNSVVELEIDEVEP", "class 0"]
]}
